Source of measurements: ChEMBL document CHEMBL5724796

target-system: Peregrin (Homo sapiens) (UniProt P55201)
Sequence (whole entry): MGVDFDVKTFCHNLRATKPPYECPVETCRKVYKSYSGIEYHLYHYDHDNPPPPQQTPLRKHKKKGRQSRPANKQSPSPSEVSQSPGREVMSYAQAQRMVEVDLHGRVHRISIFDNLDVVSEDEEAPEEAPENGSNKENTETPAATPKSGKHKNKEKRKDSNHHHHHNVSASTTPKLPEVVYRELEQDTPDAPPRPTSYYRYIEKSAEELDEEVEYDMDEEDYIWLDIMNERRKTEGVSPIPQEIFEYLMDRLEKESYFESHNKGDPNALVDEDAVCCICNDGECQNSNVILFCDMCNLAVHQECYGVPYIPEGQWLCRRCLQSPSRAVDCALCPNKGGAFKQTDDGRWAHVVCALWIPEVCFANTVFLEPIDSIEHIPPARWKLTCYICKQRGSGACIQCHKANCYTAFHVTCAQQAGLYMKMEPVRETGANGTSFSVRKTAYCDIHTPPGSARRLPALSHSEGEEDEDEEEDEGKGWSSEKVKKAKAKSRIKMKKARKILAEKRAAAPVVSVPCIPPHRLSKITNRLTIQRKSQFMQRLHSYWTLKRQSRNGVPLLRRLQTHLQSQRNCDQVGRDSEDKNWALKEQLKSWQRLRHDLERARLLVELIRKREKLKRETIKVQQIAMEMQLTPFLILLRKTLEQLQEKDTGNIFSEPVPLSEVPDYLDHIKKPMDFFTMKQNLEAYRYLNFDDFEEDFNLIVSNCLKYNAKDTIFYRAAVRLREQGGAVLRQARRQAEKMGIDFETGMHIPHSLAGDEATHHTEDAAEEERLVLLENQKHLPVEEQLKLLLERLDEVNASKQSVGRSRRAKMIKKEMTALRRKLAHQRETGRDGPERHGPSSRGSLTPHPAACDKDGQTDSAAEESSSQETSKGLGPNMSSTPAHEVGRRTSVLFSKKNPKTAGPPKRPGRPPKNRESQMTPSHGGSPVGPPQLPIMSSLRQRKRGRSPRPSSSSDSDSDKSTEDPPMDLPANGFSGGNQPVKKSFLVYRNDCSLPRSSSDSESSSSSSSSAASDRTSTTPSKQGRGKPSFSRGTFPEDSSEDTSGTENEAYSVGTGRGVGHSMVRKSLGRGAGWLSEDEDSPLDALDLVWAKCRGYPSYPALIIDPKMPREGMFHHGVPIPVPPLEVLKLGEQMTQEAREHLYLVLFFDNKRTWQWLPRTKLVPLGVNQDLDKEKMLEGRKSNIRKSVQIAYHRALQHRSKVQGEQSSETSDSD
condition-details: Compound concentration 20.0 uM
Residues, ends and D or L forms follow the SMILES beside them. *: point of attachment. CH2Cl = ClC*
reported-endpoint: ΔTm (°C)
Return type: number; implicit unit °C.

The compound identified as O=c1[nH]ccc2cc(F)c(NS(=O)(=O)c3ccc(N4CC[C@@H](O)C4)s3)cc12 registered its ΔTm at -1.14

The compound identified as O=C(c1cc(Cc2n[nH]c(=O)c3ccccc23)ccc1F)N1CCN(C(=O)C2CC2)CC1 registered its ΔTm at 0.96

The compound identified as COc1ccc(-c2c(-c3ccc(C#N)c(F)c3)nc(N3CCC(N)CC3)n(C)c2=O)cc1F registered its ΔTm at 1.09

The compound identified as CC(C)(C)OC(=O)N1CCN(C(=O)n2cc(-c3ccc(OC(F)(F)F)cc3)nn2)C(Cc2ccccc2)C1 (centres undefined) registered its ΔTm at 0.21

The compound identified as CCC(NC(=O)C(CC(C)C)NC(=O)OCc1ccccc1)C(=O)C(=O)NCCCN1CCOCC1 (centres undefined) registered its ΔTm at -1.22

The compound identified as O=c1[nH]c(CS[C@H]2CC[C@H](O)CC2)nc2cc(OCC3CC3)cc(F)c12 registered its ΔTm at -0.24

The compound identified as O=C1c2ccccc2C(=O)c2oc(-c3ccc(F)cc3)nc21 registered its ΔTm at -0.98

The compound identified as CC(=O)N[C@@H](CC(C)C)C(=O)N[C@@H](CCC(=O)O)C(=O)N[C@@H](Cc1cnc[nH]1)C(=O)N[C@@H](CC(=O)O)C(=O)CCl (Ac-LEHD-CH2Cl) registered its ΔTm at -1.13

The compound identified as O=C(O)Cn1nnc(-c2ccc(CN(CCCCOc3ccc(CN4CCCC4)cc3)CCc3ccccc3)cc2)n1 registered its ΔTm at -2.23
